# tested_on: CCK-A receptor
# procedure_details: CCK receptor binding, CCK-A (Pancreas Assay)
measure: pKi CCK-A

Example compounds with recorded pKi CCK-A:
CC(C)CCN1C(=O)C(NC(=O)Nc2cccc(N(C)C)c2)C(=O)N(c2ccccc2F)c2ccccc21 (stereo not shown) [Example 4] : 6.9
O=C(Nc1cccc([N+](=O)[O-])c1)NC1C(=O)N(CC23CC4CC(CC(C4)C2)C3)c2ccccc2N(c2ccccc2)C1=O (stereo not shown) [Example 39] : 6.52
CCOC(=O)c1cccc(NC(=O)NC2C(=O)N(CC34CC5CC(CC(C5)C3)C4)c3ccccc3N(c3ccccc3)C2=O)c1 (stereo not shown) [Example 41] : 6.09
O=C(Nc1ccccc1)NC1C(=O)N(CC23CC4CC(CC(C4)C2)C3)c2ccccc2N(c2ccccc2)C1=O (stereo not shown) [Example 14] : 6.15
CC(C)CCN1C(=O)C(NC(=O)Nc2ccccc2)C(=O)N(c2ccccc2)c2cc(Cl)ccc21 (stereo not shown) [Example 9] : 6.02
CC(C)(C)CCN1C(=O)C(NC(=O)Nc2ccccc2)C(=O)N(c2ccccc2)c2ccccc21 (stereo not shown) [Example 16] : 6.95

Task item: Form field: reported pKi CCK-A of O=C(Nc1ccccc1)NC1C(=O)N(CC23CC4CC(CC(C4)C2)C3)c2ccccc2N(c2ccccc2)C1=O (single isomer, unassigned; (+)) [Example 45]
Reply: 5.95

---

# tested_on: CCK-B receptor (Cavia porcellus)
# Sequence (H0VZC5 entry or part of it): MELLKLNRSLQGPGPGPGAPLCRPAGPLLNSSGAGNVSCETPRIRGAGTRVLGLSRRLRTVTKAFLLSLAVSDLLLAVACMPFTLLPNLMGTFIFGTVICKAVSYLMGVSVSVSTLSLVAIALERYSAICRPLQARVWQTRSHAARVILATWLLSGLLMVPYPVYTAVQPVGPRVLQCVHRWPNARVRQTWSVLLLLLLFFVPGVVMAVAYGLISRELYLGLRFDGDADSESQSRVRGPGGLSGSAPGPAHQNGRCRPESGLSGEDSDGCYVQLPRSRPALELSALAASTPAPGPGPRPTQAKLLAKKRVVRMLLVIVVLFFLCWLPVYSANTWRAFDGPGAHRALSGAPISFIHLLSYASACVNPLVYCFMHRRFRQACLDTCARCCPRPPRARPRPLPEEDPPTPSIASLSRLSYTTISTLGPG
measure: Ki (nM)
Report the value in nM with no unit label.

Task item: GET /values?readout=Ki&system=CCK-B receptor (Cavia porcellus)&item= CC(C)CCN1C(=O)C(NC(=O)Nc2cccc(N(C)C)c2)C(=O)N(c2ccccc2F)c2ccccc21 (single isomer, unassigned; (+))
Reply: 0.288

---

# tested_on: CCK-A receptor
# procedure_details: CCK receptor binding, CCK-A (Pancreas Assay)
# Method: The greater affinity of the compounds of the invention for the CCK-B receptor over the CCK-A receptor has also been established using the CCK receptor binding assays described by G. Dal Fornos et al., J. Pharmcol. Exp & Ther. 261, 1056-1063, 1992. The binding affinity of the compounds of the invention for the CCK-A receptor (Pancreas Assay) and CCK-B receptor (guinea pig cortex assay) was determined using the procedure of G Dal Forno et al J. Pharmacol. Exp & Ther. 261-1056-1063. […]
The entries below come with measured pKi CCK-A values attached.
Would you mind answering with just the numeric figure?

O=C(Nc1ccccc1)NC1C(=O)N(CC2CC3C=CC2C3)c2ccccc2N(c2ccccc2)C1=O (centres unmarked) [Example 31] : 6.76
CC(C)CCN1C(=O)C(NC(=O)Nc2ccccc2)C(=O)N(c2ccccc2)c2cc(Cl)c(Cl)cc21 (centres unmarked) [Example 11] : 5.80
CC(C)(C)C(O)CN1C(=O)C(NC(=O)Nc2ccccc2)C(=O)N(c2ccccc2F)c2ccccc21 (centres unmarked) [Example 7A] : 6.33
CN(C)c1ccc(NC(=O)NC2C(=O)N(CCC3CCCC3)c3ccccc3N(c3ccccc3F)C2=O)cc1 (centres unmarked) [Example 30] : 7.00

Note: attention shifts to another entry.
Task item: State the recorded pKi CCK-A for this entry: CC(C)CCN1C(=O)C(NC(=O)Nc2cccc(N(C)C)c2)C(=O)N(c2ccccc2F)c2ccccc21 (single isomer, unassigned; (+)) [Example 27]
Reply: 6.83
